# Tested on: MS2 coat protein
# Assay protocol: apparent KD of MS2 coat protein; designed switch direction (-1 OFF switch, 1 ON switch): -1; higher = weaker reporter binding
# Setup conditions: input ligand: none
Result type: apparent KD of MS2 coat protein (nM)
Give the value, in units of nM, as a plain number.

Use these answered entries as a reference point.
>  <Seq>
CGGUGUAACGCAGGAUAUCAUCGCAACUGACGUUGAGAAGGGCGACAUGAGGAUCACCCAUGUGAUUUCUCAAUAUUAUACAUC [Prohibition 84 - Jieux - Exclusion NG 1] (Eterna round: R96, puzzle: Exclusion NG 1)

>  <Target under test>
MS2 coat protein

>  <Assay result>
59.8

$$$$
>  <Seq>
UUAUCUACUGAGGAUAUUAUAUUACCCGACUGAUAAGAAGGCAGUACAUGAGGAUCACCCAUGUGGGUAGCCAU [Polaris11] (Eterna round: R97, puzzle: Exclusion 6)

>  <Target under test>
MS2 coat protein

>  <Assay result>
20.8

$$$$
>  <Seq>
GUGCCGCGAGGAUAUACAGACGGGUCCAUUACGUGUCUCGGACUUGAGGAUCACCCAAGUAGAAGGCGUUUCAG [salish99_ex2_r4_624] (Eterna round: R97, puzzle: Exclusion 2)

>  <Target under test>
MS2 coat protein

>  <Assay result>
38.4

$$$$
>  <Seq>
GGUCGACAUGAGGAUCACCCAUGUCAGGAUAUCGUCACUGGAGCUUCGGCUCCAGUGACGAGAAGGGAUAUAAU [E1/15-A1] (Eterna round: R97, puzzle: Exclusion 1)

>  <Target under test>
MS2 coat protein

>  <Assay result>
36.9

$$$$

--- query ---
Enquiry: Input UGAUCAGACCGAGGAUAUAUAUGGAGGACCCACGUGAGUGGGUCCACUACAUGAGGAUCACCCAUGUAGAAGGCGGUCUGAUCU [JL ENG2 1.86] (Eterna round: R96, puzzle: Exclusion NG 2) , output reported apparent KD of MS2 coat protein.
Return: 13.3

---

# Test system: MS2 coat protein
# Assay protocol: apparent KD of MS2 coat protein; designed switch direction (-1 OFF switch, 1 ON switch): -1; higher = weaker reporter binding
# Setup conditions: Eterna round: R95; input ligand: microRNA oligo, concentration not stated
Result type: apparent KD of MS2 coat protein (nM)
Give the value, in units of nM, as a plain number.

Record excerpt, results attached:
>  <Seq>
AGUCGGCGAGGAUAUACAUGAGGAUCACCCAUGUGAUAUAGUGCACGCGUACGUGUACGUAGAAGGCGCUGACA [Mat - Exclusion 3 - Mod of JL D93] (puzzle: Exclusion 3)

>  <Target under test>
MS2 coat protein

>  <apparent KD of MS2 coat protein / nM>
11.5

$$$$
>  <Seq>
UCGGCGCGAGGAUAUGCGGCUCCUGCUUCGGGCCGGAGCGUACAUGAGGAUCACCCAUGUAGAAGGCGCGCCGC [Apr-15 SS2-39] (puzzle: Exclusion 2)

>  <Target under test>
MS2 coat protein

>  <apparent KD of MS2 coat protein / nM>
10.2

$$$$
>  <Seq>
CUUUUGUGAGGAUAUCAGUAGUAAUACAAUAGUAUUAUUACUGAGAAGGCACAUGAGGAUCACCCAUGUUCCUC [Ex4 344 Omei mod 7] (puzzle: Exclusion 4)

>  <Target under test>
MS2 coat protein

>  <apparent KD of MS2 coat protein / nM>
38.6

$$$$

Enquiry: Using known records, supply apparent KD of MS2 coat protein for GAUUAUGCGAGCUUUAGGGACAUGAGGAUCACCCAUGUUCGUCUUAUUGAUCUAGGUACGCUGACAUACCUAAAUCU [Mod of one of jandersonlee's solutions 2] (puzzle: Sensor v3, turn-off variant 1)
Return: 36.1

Enquiry: // fetch apparent KD of MS2 coat protein given entry AGGAUGUUAGGAUAUCGGAUAUGCUGGAGGAGGUGGAUUUACGAGAAGGAACAUGAGGAUCACCCAUGUUGGAG [JR_Exclu4_Sub047] (puzzle: Exclusion 4)
Return: 20.9

---

# Tested on: MS2 coat protein
# Assay protocol: apparent KD of MS2 coat protein; designed switch direction (-1 OFF switch, 1 ON switch): -1; higher = weaker reporter binding
# Setup conditions: input ligand: FMN 200 uM
Respond with YES for apparent KD of MS2 coat protein values of 90 nM and above, NO for values below.

>  <Seq>
CACGAAUUGUGAGGAUAUGUGCGACAAAGUUGCACAGAAGGCACAUGAGGAUCACCCAUGUAAGCUAGGUCGAAAGACCUAGCG [Omei Exc(NG)1 Av1] (Eterna round: R96, puzzle: Exclusion NG 1)

>  <Category label>
YES

$$$$
>  <Seq>
AGUGUGUGGCAGGAUAUUCUAAUCUUGAGGAGGGAAGAAGGGUCUACAUGAGGAUCACCCAUGUAAGCGGUUGA [Ex6 #41] (Eterna round: R97, puzzle: Exclusion 6)

>  <Category label>
YES

$$$$
>  <Seq>
AACCUGAGGCAUAGCUUUAGGUUUACAUGAGGAUCACCCAUGUAGGAUAUGGUAGGCAUAGCUUACCAGAAGGACAUGAAAAUU [Mat - Exclusion NG 3 - Mod of JL - D30] (Eterna round: R96, puzzle: Exclusion NG 3)

>  <Category label>
YES

$$$$
>  <Seq>
AACCUACAUGAGGAUCACCCAUGUGAGGAUAUAUUGGUAUUUAUAUUAUUUUUUAGAGGUAGAAGGCGCGUGAU [JR_Exc1_Sub021] (Eterna round: R97, puzzle: Exclusion 1)

>  <Category label>
NO

$$$$
>  <Seq>
AAGCAACAUGAGGAUCACCCAUGUGAGGAUAUACGCAUGCAUGCAUGCAUGCAUGCAAGUAGAAGGCACAAUAC [Design #16] (Eterna round: R97, puzzle: Exclusion 1)

>  <Category label>
NO

$$$$

# ---- query sequence ----
Enquiry: Hi, just wondering whether CCGGCUGCUGUGAGGAUAUGCCUGUGGGUGCGUGGGCAGAAGGCACAUGAGGAUCACCCAUGUCCUGCGGUCCC [salish99_bmx4_r4_114] (Eterna round: R97, puzzle: Brourd's mod of Exclusion 4) shows apparent KD of MS2 coat protein of 90 nM or higher.
Return: NO

---

# Tested on: MS2 coat protein
# Assay protocol: apparent KD of MS2 coat protein; designed switch direction (-1 OFF switch, 1 ON switch): -1; higher = weaker reporter binding
# Setup conditions: Eterna round: R95; input ligand: microRNA oligo, concentration not stated
# maps each entry to its apparent KD of MS2 coat protein
Hi! Could you send only the number? It should be in nM, unit omitted.

Solved cases (3 shown):
>  <Seq>
AGUACUAACACGGAAGUGUUAGUACUAUAAGCUUGUGUUACAUGAGGAUCACCCAUGUCCUCAUAAGCUCGUCUUAU [Mat - Sensor v3 - Turn-off var 2 - D69] (puzzle: Sensor v3, turn-off variant 2)

>  <Target under test>
MS2 coat protein

>  <Result type>
apparent KD of MS2 coat protein

>  <Value units>
nM

>  <Assay result>
87

$$$$
>  <Seq>
GGCUAGUCAGGAUAUACGAACAUGUCAAAAGACGUGAAGGGACAUGAGGAUCACCCAUGUAGAAGGGACUAGCC [salish99_ex2_r3_004] (puzzle: Exclusion 2)

>  <Target under test>
MS2 coat protein

>  <Result type>
apparent KD of MS2 coat protein

>  <Value units>
nM

>  <Assay result>
21.8

$$$$
>  <Seq>
AUAAGCUUUGAGAUCCUUAACAUGAGGAUCACCCAUGUUCGUCUUAUGAUGGUCUGAUCCCUGAGGAUCGGACCGUC [JL-sv1-2.01 Brourd Mod] (puzzle: Sensor v3, turn-off variant 1)

>  <Target under test>
MS2 coat protein

>  <Result type>
apparent KD of MS2 coat protein

>  <Value units>
nM

>  <Assay result>
13.5

$$$$

Enquiry: // Input: AGAUGGCGAGGAUAUACAUGAGGAUCACCCAUGUGAAGAAGAAUAGUGAGGAAGAAAAGUAGAAGGCGCUGUCA [Mat - Exclusion 3 - Mod of Salish D32] (puzzle: Exclusion 3) . Output its apparent KD of MS2 coat protein only.
Return: 49.4

Enquiry: Return value of apparent KD of MS2 coat protein for input AAUAGGACAGGAUAUCCGGAGUCGAACAUGAGGAUCACCCAUGUGAUGAGGAUGUUCGCUGGAGAAGGGUCGGGCU [Teonus] (puzzle: Exclusion 5) , no commentary.
Return: 56.5

Enquiry: Provide measured apparent KD of MS2 coat protein value, entry: UUUUUGUGAGGAUAUCAGUAGUAAAUAAAUAAAAUUACUACUGAGAAGGCACAUGAGGAUCACCCAUGUUUUUU [Mat - Exclusion 4 - Mod of Salish - D68] (puzzle: Exclusion 4)
Return: 41.8

Enquiry: Find the measured apparent KD of MS2 coat protein of UUUUUGUCAGGAUAUGCAUGUUUUUUUUUUUUUUUUUUCAUGCAGAAGGGACAUGAGGAUCACCCAUGUAGUUU [Ex4 - 3 - 10] (puzzle: Exclusion 4) and report it.
Return: 23.4

Enquiry: In one line, give reported apparent KD of MS2 coat protein of the entry CCUAUGUGAGGAUAUCACUGGUCUGCUCACUAGAUGAUCAGUGAGAAGGCACAUGAGGAUCACCCAUGUCAGUG [Exclusion 4 - Mod Brourd Ex 4-3 - 53] (puzzle: Exclusion 4) .
Return: 92.9

Enquiry: Please supply the value of reported apparent KD of MS2 coat protein for the item ACAAGCUUUUUGUUCGUCUUAUAAUAAUAAAUAAAGAUAACAUGAGGAUCACCCAUGUAACAAAGACGGACUCAUGU [Sesor Array 18 - Jieux - Sensor v3, turn-off variant 2] (puzzle: Sensor v3, turn-off variant 2)
Return: 279

Enquiry: Input UAAUAUAGUGUGAGGAUAUGCUGGUCGAUAGAUCAGCAGAAGGCACAUGAGGAUCACCCAUGUAAUAUAUUAAA [Mat - Exclusion 4 - JL Mod - D36] (puzzle: Brourd's mod of Exclusion 4) , output reported apparent KD of MS2 coat protein.
Return: 30.7
